These measurements were taken from ChEMBL document CHEMBL4811251.

# Method notes: AUC in BALB/c mouse at 2 mg/kg, iv measured upto 24 hrs by LC/MS/MS analysis
# Type: ADME, organism-based
# Parameters: route intravenous, dose 2 mg/kg, time <=24
# Test context: in vivo
Measured attribute: AUC at 24 h
A complete answer gives the number followed by the unit.

>>> result("Nc1ncc(-c2cc3ccccc3s2)c(N2CCC3(CCNC3=O)CC2)c1Cl")
"2.4 µM·h"

Lookup: I am curious: what AUC at 24 h value has been reported for Nc1ncc(-c2cc3ccccc3o2)c(N2CCC3(CCNC3=O)CC2)c1Cl ?
Found: 1.55 µM·h

---

# Method notes: Cmax in Sprague-Dawley rat at 5 mg/kg, iv measured upto 24 hrs by LC/MS/MS analysis
# Assay type: ADME, organism-based
# Set-up: route intravenous, dose 5 mg/kg, time <=24
# Test context: in vivo
Measured attribute: Cmax (µM)
Please respond with the number in µM and leave the unit unwritten.

>>> number("Nc1ncc(-c2cc3ccccc3s2)c(N2CCC3(CCNC3=O)CC2)c1Cl")
11.1

Lookup: Returns the measured Cmax for the input molecule. Input: Nc1ncc(-c2cc3ccccc3o2)c(N2CCC3(CCNC3=O)CC2)c1Cl
Found: 9.36

---

# Method notes: Clearance in Sprague-Dawley rat at 5 mg/kg, iv measured upto 24 hrs by LC/MS/MS analysis
# Format: ADME, organism-based
# Test context: in vivo
Reported clearance values are given for each entry in this list.
# value in mL/min/kg; strip the unit string

>>> number("Nc1ncc(-c2cc3ccccc3o2)c(N2CCC3(CCNC3=O)CC2)c1Cl")
23.8

Now consider a different molecule.
Lookup: Query: clearance; subject: Nc1ncc(-c2cc3ccccc3s2)c(N2CCC3(CCNC3=O)CC2)c1Cl
Found: 13.2

---

# Method notes: Dissociation constant, pKa of the compound by fast UV-spectrometric titration method
# Type: physicochemical
Measured attribute: pKa
Give the figure only, with no unit attached.

Lookup: // query pKa value for entry Nc1ncc(-c2cc3ccccc3o2)c(N2CCC3(CCNC3=O)CC2)c1Cl
Found: 5.27

---

# Method notes: Tmax in BALB/c mouse at 2 mg/kg, iv measured upto 24 hrs by LC/MS/MS analysis
# Type: ADME, organism-based
# Test context: in vivo
Measured attribute: Tmax (min)
Dear colleague, please return just the value in min, with no unit written.

>>> number("Nc1ncc(-c2cc3ccccc3o2)c(N2CCC3(CCNC3=O)CC2)c1Cl")
3

// next item, Tmax requested
Lookup: Any idea what its Tmax is? The compound is Nc1ncc(-c2cc3ccccc3s2)c(N2CCC3(CCNC3=O)CC2)c1Cl
Found: 3
